B1: Osa-1-4 twister ribozyme (parent)
chain: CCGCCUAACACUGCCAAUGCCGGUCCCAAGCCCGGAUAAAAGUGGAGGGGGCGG

Variants of: B1
assay_remarks: self-cleavage, relative activity (ratio to wild type); higher = more cleavage; co-transcriptional
test_readout: self-cleavage

1. CCGCCUAACCCUGCCAUUGCCGGUCCCAAGCCCGGAUAAAAGUGGAGGGGGCGG ... 0.08
2. CCGCCUAACACUGCCAAUGCCGGUCCCAAGCCCUGACAAAAGUGGAGGGGGCGG ... 0.84
3. CCGCCUAACACUGCCAAUGCAGGUCCCAAGCCCGGAUAAAAGUGGAGGGCGCGG ... 0.24
4. CCGCCUAACACUGUCAAUGCCGGUCCCAAGCUCGGAUAAAAGUGGAGGGGGCGG ... 0.06
5. CCGCCUAACACUGCCAAUGCCGGUCCGAAGCCCGGAUAAAAGUAGAGGGGGCGG ... 0.06
6. CCGCCUAACACUGCCAAUGCCGGUCCCAAGCCCGGACAAAAGUGGAGGGUGCGG ... 1.06
7. CCGCCUAACACCGCCAAUGCCGGUCCCAAGCCCGGAUAAAAGUGCAGGGGGCGG ... 0.05
8. CCGCCUAAAACUGCCAAUGCCGGUCCCAAGCCCGGAUAAAAGUGGAGAGGGCGG ... 0.02
9. CCGCCUAACACUGCCAAUGUCGGUCCCAAACCCGGAUAAAAGUGGAGGGGGCGG ... 0.05
10. CCGCCUAACAGUGCCAAUGCCGGUCCCAAGCCCGGAGAAAAGUGGAGGGGGCGG ... 0.71
11. CCGCCUAACACUGCGAAUGCCGGUCUCAAGCCCGGAUAAAAGUGGAGGGGGCGG ... 0.11
12. CCGCCUAACACUGCCAAUGGCGGUCCCAAGCCCGGAUAAAAGUGGAGGGGGGGG ... 0.11
13. CCGCCUAUCACUGCCAAUGCCGGCCCCAAGCCCGGAUAAAAGUGGAGGGGGCGG ... 0.05
14. CCGCCUAACACUGCCAAUGCCGGUCCCAAGACCGGAUAAAAGUGGAGGGGGCGA ... 0.04
15. CCGCCUAACACUGCCAAUGCCGGGUCCAAGCCCGGAUAAAAGUGGAGGGGGCGG ... 0.04
16. CCGCCUAACACUGCCAAUGCCGGUCCCAAGCCCGGAUAAAAGUGGAGGGGCCGC ... 0.34
17. CCGCCUAACACUGCCAAUGCCGGUCCCAAGCCCGGAUAGAAGUGGAGGGGGCGG ... 1
18. CCGCCUAACACUGCCAAUGCCGGUCCCAAGACCGGAUCAAAGUGGAGGGGGCGG ... 0.04
19. CCGCCUAACACUGCCAAUGCCGGUCCCAAGCCCAGAUAAAAGUGGAAGGGGCGG ... 0.13
20. CCGCCUAACACUGCCAAUCCCGAUCCCAAGCCCGGAUAAAAGUGGAGGGGGCGG ... 0.04
21. CCGCCUAACACUGCCAAUGCCGGUCCCAGGCCCGGAUAAAAGUGGAGAGGGCGG ... 0.04
22. CCGCCUAACACUGCCAUUGCCGGUCCCAAGCCCGCAUAAAAGUGGAGGGGGCGG ... 0.86
23. CCGCCUAACAGUGACAAUGCCGGUCCCAAGCCCGGAUAAAAGUGGAGGGGGCGG ... 0.05
24. CCGCCUAGCACUGCCAAUGCCGGUCCCAAGCCCGGAUAGAAGUGGAGGGGGCGG ... 0.35
25. CCGCCUAACACUGCCAAUGCCGGUCCCAAGCCCGGCUAAAAGUGGAGGGGUCGG ... 0.11
26. CCGCCUUACACUGCCAAUGCCGGUCCCAAGUCCGGAUAAAAGUGGAGGGGGCGG ... 0.05
27. CCGCCUAACACUGCCAAUGCCGGUCCCAAGCCAGUAUAAAAGUGGAGGGGGCGG ... 0.07
28. CCGCCUAACACUCCCAAUGCCGGUCCCAAGCCCGGAUAAAAGUGGAGUGGGCGG ... 0.01
29. CCGCCUAACACUGCCAAUGCCGGUACCAAGCCCGGAUAAAAGUGGAGGGGGCGU ... 0.28
30. CCGCCUAAGACUGCCAAUGCCGGUCCCCAGCCCGGAUAAAAGUGGAGGGGGCGG ... 0.67
31. CCGCCUAACACUGCUAAUGCCGGUCCCAAGCCCGGAUAAAAGUGGACGGGGCGG ... 0.05
32. CCGCCUAACGCUGCCAAUGCCGGUCCCAAGCCAGGAUAAAAGUGGAGGGGGCGG ... 0.1
33. CCGCCUAACACUGCCAAUGCCGGUCCCAAGCCCGGAUAAUGGUGGAGGGGGCGG ... 0.1
34. CCGCCUAACACUGCCAAUGCCGGUCCAAGGCCCGGAUAAAAGUGGAGGGGGCGG ... 0.06
35. CCGCCUAACACUGCCAAUGCCGGUCCCAAGCCCGGAUAAAAGUGGUGGGGGCGU ... 0.17
36. CCGCCUAACACUGCCAAUGCCGGUUCCCAGCCCGGAUAAAAGUGGAGGGGGCGG ... 0.91
37. CCGCCUAACACUGCCGAUGCCGGUCCAAAGCCCGGAUAAAAGUGGAGGGGGCGG ... 0.38
38. CCGCCUAACACUGCCAAUGCCGGUCCCAAGCCCGGAUAAAAGUGGAGGGGGCCC ... 0.08
39. CCGCCUAACACUGCCAAUGGCGCUCCCAAGCCCGGAUAAAAGUGGAGGGGGCGG ... 0.04
40. CCGCCUAACACUGCCAAUUGCGGUCCCAAGCCCGGAUAAAAGUGGAGGGGGCGG ... 0.37
41. CCGCCUAACACUGCCAAUGCCGGUACCAGGCCCGGAUAAAAGUGGAGGGGGCGG ... 0.04
42. CCGCCUAACACCGCCAAUGCCGGUCCCAAGCCCGGAUAUAAGUGGAGGGGGCGG ... 0.15
43. CCGCCUAACACUGCCAAUGCCGGUCCCAAGCCCGUACAAAAGUGGAGGGGGCGG ... 0.94
44. CCGCCUAACACGGCCAAUGCCGGUCUCAAGCCCGGAUAAAAGUGGAGGGGGCGG ... 0.23
45. CCGCCUAACACUGCGAAUGCCGGUCCCAAGCCUGGAUAAAAGUGGAGGGGGCGG ... 0.11
46. CCGCCUAGCACUGGCAAUGCCGGUCCCAAGCCCGGAUAAAAGUGGAGGGGGCGG ... 0.1
